Biological target: human cathepsin K (CatK) (Homo sapiens (Human), UniProt P43235)
Sequence (P43235 115-329): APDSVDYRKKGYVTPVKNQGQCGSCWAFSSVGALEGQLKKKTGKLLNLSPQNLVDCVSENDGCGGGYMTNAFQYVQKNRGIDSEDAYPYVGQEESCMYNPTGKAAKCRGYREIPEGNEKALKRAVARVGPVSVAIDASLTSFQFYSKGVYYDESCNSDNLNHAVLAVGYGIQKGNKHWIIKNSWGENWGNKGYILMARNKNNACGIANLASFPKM
Test: CatK functional enzyme assay
Details: recombinant human CatK, substrate Z-FR-AMC 40 μM, pH 5.5; Ki by Cheng Prusoff equation; read-out: hCatK, Ki
Description: Reference and test compounds were assayed for inhibitory potency (IC50) against human cathepsins using the following assay setups: Recombinant human cathepsins (CatS, CatK, CatL) were purchased from a Enzo Life Sciences. […] Flourogenic substrate turnover was detected using a microplate reader (Synergy™ H4, BioTek). Ki values were calculated using the Cheng Prusoff equation (Cheng & Prosoff 1973).
pKi: −log10 of the molar value.
measuredProperty: pKi

> print(dat)
                                  smilestext  measuredproperty  reportedmeasurement
 1  O=C(N[C@H](C(=O)N1C[C@H](Cl)[C@H]2OCC(=O)[C@H]21)C1CCCCC1)c1ccc(-c2cnccn2)s1               pKi                 7.85
 2  Cc1ccnnc1-c1ccc(C(=O)N[C@H](C(=O)N2C[C@H](Cl)[C@H]3OCC(=O)[C@H]32)C2CCCCC2)s1               pKi                 7.80
 3  O=C(N[C@H](C(=O)N1C[C@H](Cl)[C@H]2OCC(=O)[C@H]21)C1CCCCC1)c1ncc(-c2cnc(C3CC3)nc2)s1               pKi                 7.38
 4  O=C(N[C@H](C(=O)N1C[C@H](Cl)[C@H]2OCC(=O)[C@H]21)C1CCCCC1)c1ccc(-c2ccccn2)s1               pKi                 7.85
 5  O=C(N[C@H](C(=O)N1C[C@H](Cl)[C@H]2OCC(=O)[C@H]21)C1CCCCC1)c1ccc(-c2ccc(Cl)nc2)s1               pKi                 7.80
 6  Cc1cnnc(-c2ccc(C(=O)N[C@H](C(=O)N3C[C@H](Cl)[C@H]4OCC(=O)[C@H]43)C3CCCCC3)s2)c1               pKi                 7.82
 7  N#Cc1cncc(-c2cnc(C(=O)N[C@H](C(=O)N3C[C@H](Cl)[C@H]4OCC(=O)[C@H]43)C3CCCCC3)s2)c1               pKi                 6.61
 8  O=C(N[C@H](C(=O)N1C[C@H](Cl)[C@H]2OCC(=O)[C@H]21)C1CCCCC1)c1ccc(-c2cncnc2)o1               pKi                 7.06
 9  CCc1cc(-c2cnc(C(=O)N[C@H](C(=O)N3C[C@H](Cl)[C@H]4OCC(=O)[C@H]43)C3CCCCC3)s2)ccn1               pKi                 8.40
10  COc1cnnc(-c2ccc(C(=O)N[C@H](C(=O)N3C[C@H](Cl)[C@H]4OCC(=O)[C@H]43)C3CCCCC3)s2)c1               pKi                 7.41
11  O=C(N[C@H](C(=O)N1C[C@H](Cl)[C@H]2OCC(=O)[C@H]21)C1CCCCC1)c1sc(-c2cccnc2)cc1F               pKi                 6.26
12  Cc1cc(-c2cnc(C(=O)N[C@H](C(=O)N3C[C@H](Cl)[C@H]4OCC(=O)[C@H]43)C3CCCCC3)s2)ccn1               pKi                 8.15
